system: Salmonella typhimurium; assay: Antibacterial activity against Salmonella typhimurium ATCC 13311 after 24 hrs by broth microdilution method; format: functional, Salmonella enterica subsp. enterica serovar Typhimurium; details: Salmonella enterica, ATCC 13311, 24 h

>  <mol smiles>
O=C(N[C@H](CO)[C@H](O)c1ccc([N+](=O)[O-])cc1)C(Cl)Cl

>  <measure unit>
µg/mL

>  <qual>
=

>  <MIC90>
8

$$$$
>  <mol smiles>
CN(C)[C@@H]1C(O)=C(C(N)=O)C(=O)[C@@]2(O)C(O)=C3C(=O)c4c(O)cccc4[C@@](C)(O)[C@H]3C[C@@H]12

>  <measure unit>
µg/mL

>  <qual>
=

>  <MIC90>
16

$$$$
>  <mol smiles>
CC1(C)S[C@@H]2[C@H](NC(=O)[C@H](N)c3ccccc3)C(=O)N2[C@H]1C(=O)O

>  <measure unit>
µg/mL

>  <qual>
=

>  <MIC90>
0.5

$$$$
>  <mol smiles>
COC(=O)[C@@H](CO)NC(=O)[C@]1(C)CCC[C@]2(C)c3ccc(C(C)C)cc3CC[C@@H]12

>  <measure unit>
µg/mL

>  <qual>
=

>  <MIC90>
31

$$$$
>  <mol smiles>
COC(=O)[C@H](CO)NC(=O)[C@]1(C)CCC[C@@]2(C)[C@H]1CC=C1C=C(C(C)C)CC[C@@H]12

>  <measure unit>
µg/mL

>  <qual>
>

>  <MIC90>
125

$$$$
>  <mol smiles>
CC(C)C1=CC2=CC[C@@H]3[C@](C)(CCC[C@@]3(C)C(=O)O)[C@H]2CC1

>  <measure unit>
µg/mL

>  <qual>
=

>  <MIC90>
31

$$$$

# credit: ChEMBL document CHEMBL3868600
